This collection of values is drawn from ChEMBL document CHEMBL1157539.

- Tested on: Plasmodium falciparum
- PROTOCOL_SUMMARY: GSK_TCMDC: Inhibition of Plasmodium falciparum 3D7 in whole erythrocytes, using parasite LDH activity as an index of growth.
- Format: functional, organism-based
- MEASUREMENT_CONTEXT: Plasmodium falciparum, 3D7

COMPOUND: CC(C)CNCc1cccc(-c2cccc(CN(C(=O)c3cccs3)C3CCN(Cc4ccccc4)CC3)c2)c1
XC50, nM: 896
--
COMPOUND: N#Cc1ccc2c(c1)CN(CCC1CCC(NC(=O)c3cc4cnccc4[nH]3)CC1)CC2 (stereo not given)
XC50, nM: 801
--
COMPOUND: CCn1cnc2c(N3CCCC3=O)cc(C(=O)N[C@@H](Cc3ccccc3)[C@H](O)CNC3CCCCC3)cc21
XC50, nM: 574
--
COMPOUND: CC(=O)Nc1ccc(CN(Cc2ccc(F)cc2)Cc2cccc(Oc3ccccc3)c2)cc1
XC50, nM: 943
--
COMPOUND: CCCc1ccc(C2CCN(CCCCNC(=O)c3ccc(NC(=O)c4ccc(Cl)cc4)cc3)CC2)cc1
XC50, nM: 628
--
COMPOUND: Cc1cc(CNCC(CCNc2cc(=O)c3ccccc3[nH]2)NCc2cc(Br)cc(Br)c2)oc1C (stereo not given)
XC50, nM: 894
--
COMPOUND: Cc1cccc2nc(-c3ccc(-c4cccc(NC(=O)NCc5cccc(F)c5)c4)s3)[nH]c12
XC50, nM: 760
--
COMPOUND: COc1ccc(-c2c(C(F)(F)F)nn(C)c2NC(=O)Nc2ccc(F)cc2F)cc1
XC50, nM: 797
--
COMPOUND: Cc1ccccc1OCC(=O)Nc1ccc(-c2nc3cc4ccccc4cc3[nH]2)cc1
XC50, nM: 753
--
COMPOUND: COc1ccc(CCNCCCCCNCCCc2ccc(Cl)cc2)cc1OC
XC50, nM: 808

###

- Test system: Plasmodium falciparum
- PROTOCOL_SUMMARY: GSK_TCMDC: Inhibition of Plasmodium falciparum 3D7 in whole erythrocytes, using parasite LDH activity as an index of growth.
- Format: functional, organism-based
- MEASUREMENT_CONTEXT: Plasmodium falciparum, 3D7

COMPOUND: COc1ccc(C)cc1NC(=O)CSc1nc2cccnc2n1C1CCCCC1
XC50, nM: 544
--
COMPOUND: Cc1cc(N[C@@H](CC(C)C)C(=O)NCCOc2ccccc2)nc(NCCc2ccccc2)n1
XC50, nM: 1510
--
COMPOUND: COc1ccc(C(=O)NC2CCN(c3ccnc4cc(Cl)ccc34)C2)cc1 (centres undefined)
XC50, nM: 231
--
COMPOUND: COc1ccc2nccc([C@@H](O)CN3CCC(NCc4nc5c(cc4F)SCC(=O)N5)C(F)C3)c2c1 (some centres undefined)
XC50, nM: 725

###

- Test system: Plasmodium falciparum
- PROTOCOL_SUMMARY: GSK_TCMDC: Inhibition of Plasmodium falciparum 3D7 in whole erythrocytes, using parasite LDH activity as an index of growth.
- Format: functional, organism-based
- MEASUREMENT_CONTEXT: Plasmodium falciparum, 3D7
Quick reference for XC50 among some molecules

MOLECULE: COc1ccc(N2CCN(CCCN3CCN(C(=O)c4ccc(/C=C/c5ccc(Cl)c(Cl)c5)cc4)CC3)CC2)c(OC)c1
XC50 (nM): 907
//
MOLECULE: CC(=O)Nc1nc(C(=O)Nc2cccc(-c3cccc(-c4nc5cc(F)ccc5[nH]4)c3)c2)cs1
XC50 (nM): 89.2
//
MOLECULE: CN(C)C(=O)c1ccc(CN(Cc2ccc3c(c2)OCCO3)Cc2ccc3c(c2)OCO3)cc1
XC50 (nM): 175
//
MOLECULE: O=c1cc(NCCC(CNCCc2ccccc2)NCc2cc(Br)cc(Br)c2)[nH]c2ccccc12 (stereo not drawn)
XC50 (nM): 514
//
MOLECULE: N[C@@H](Cc1ccc(O)cc1)C(=O)NC(c1ccccc1)c1c(O)ccc2ccccc12 (stereo partly drawn)
XC50 (nM): 694
//
MOLECULE: FC(F)(F)c1ccc2c(NCCNc3ccnc4cc(C(F)(F)F)ccc34)ccnc2c1
XC50 (nM): 32.7
//
MOLECULE: CCOC(=O)c1[nH]c2ccc(F)cc2c1NC(=O)CN1CCN(c2cccc(C(F)(F)F)c2)CC1
XC50 (nM): 458
//
MOLECULE: O=C(/C=C/c1ccc(C(F)(F)F)cc1)NCCCCCN1CCN(C(=O)Nc2ccc(Cl)cc2)CC1
XC50 (nM): 1010
